FYI, the data here is from ChEMBL document CHEMBL1155369.

Give measured clearance for each item. Keep answers brief.
Test: Clearance in Sprague-Dawley rat at 2 mg/kg, iv and 10 mg/kg, po
Format: ADME, organism-based
Conditions: in vivo
One number for each entry, in mL/min/kg.

Before answering, review these 3 worked examples.
N#Cc1nc(NC2CCCCC2)nc(N2CCNCC2)n1: 159
N#Cc1nc(CCCN2CCCCC2)cc(-c2cccc(C(F)(F)F)c2)n1: 13.3
CC(C)(C)NCCCc1cc(-c2cccc(C(F)(F)F)c2)nc(C#N)n1: 30

Now let's try a different one.
Q) I have this compound here, CCC(CC)NCCCc1cc(-c2cccc(C(F)(F)F)c2)nc(C#N)n1 , and I need its recorded clearance.
A) 13.5
